TEST DESCRIPTION: in vitro
APPLIED CONDITIONS: human, Caco-2, pH 7.4, Permeability Mean
Counter-ions that a name gives are not always drawn. Non-standard residues stand in square brackets, D forms with d. Residues, ends and D or L forms follow the SMILES beside them. Dopa = N[C@@H](Cc1ccc(O)c(O)c1)C(=O)O
MEASURED QUANTITY: Papp B→A at 40 min, 10 μM (×10⁻⁶ cm/s)

NC(=O)C[C@H](NC(=O)[C@@H](N)Cc1ccc(O)c(O)c1)C(=O)O [LD-Asn TFA salt, Levodopa Asparagine TFA Salt] (H-[Dopa]-Asn-OH)    0.4
N[C@@H](Cc1ccc(O)c(O)c1)C(=O)NCC(=O)O [LD-Gly TFA salt, Levodopa Glycine TFA Salt]    0.4
N[C@@H](CSC[C@H](NC(=O)[C@@H](N)Cc1ccc(O)c(O)c1)C(=O)O)C(=O)O (single isomer, unassigned; peak 2) [LD-LA2 TFA salt, Levodopa Lanthionine Peak 2 TFA Salt]    13.3
N[C@@H](CSC[C@@H](NC(=O)[C@@H](N)Cc1ccc(O)c(O)c1)C(=O)O)C(=O)O (single isomer, unassigned; peak 1) [LD-LA1 TFA salt, Levodopa Lanthionine Peak 1 TFA Salt]    0.3
NC(=O)CC[C@H](NC(=O)[C@@H](N)Cc1ccc(O)c(O)c1)C(=O)O [LD-Gln TFA salt, Levodopa Glutamine TFA Salt] (H-[Dopa]-Gln-OH)    0.9

----------
Collected Ke values appear next to each entry.
TEST DESCRIPTION: Human liver S9 stability test
Assay type: in vitro ADME
APPLIED CONDITIONS: slope of the percentage decrease of remaining compound; substrate 10 μM; S9 protein 0.2 mg/mL; 0-60 minutes
Structures can show the parent of a compound that is named as a salt. Non-standard residues stand in square brackets, D forms with d. Residues, ends and D or L forms follow the SMILES beside them. Dopa = N[C@@H](Cc1ccc(O)c(O)c1)C(=O)O
MEASURED QUANTITY: Ke

NCCCC[C@H](NC(=O)[C@@H](N)Cc1ccc(O)c(O)c1)C(=O)O [LD-Lys TFA salt, Levodopa Lysine TFA Salt] (H-[Dopa]-Lys-OH)    0.0788
N=C(N)NCCC[C@H](NC(=O)[C@@H](N)Cc1ccc(O)c(O)c1)C(=O)O [LD-Arg TFA salt, Levodopa Arginine TFA Salt]    0.1268
N[C@@H](Cc1ccc(O)c(O)c1)C(=O)N[C@@H](Cc1ccc(O)cc1)C(=O)O [LD-Tyr TFA salt, Levodopa Tyrosine TFA Salt] (H-[Dopa]-Tyr-OH)    0.0217
NC(=O)C[C@H](NC(=O)[C@@H](N)Cc1ccc(O)c(O)c1)C(=O)O [LD-Asn TFA salt, Levodopa Asparagine TFA Salt] (H-[Dopa]-Asn-OH)    0.0015
N[C@@H](Cc1ccc(O)c(O)c1)C(=O)N[C@@H](CC(=O)O)C(=O)O [LD-Asp TFA salt, Levodopa Aspartic Acid] (H-[Dopa]-Asp-OH)    0.0008
NC(=O)[C@@H](N)Cc1ccc(O)c(O)c1 [LDA (levodopa amide), levodopa amide, reference compound]    −0.0008

----------
TEST DESCRIPTION: Protein binding, solid phase extraction (SPE) method
Assay type: in vitro ADME, human
APPLIED CONDITIONS: human, human plasma, 1.0E−05M; SPE sample preparation; read-out: % Recovery Mean
Where a name gives a salt, the structure may show the parent alone. Non-standard residues stand in square brackets, D forms with d. Residues, ends and D or L forms follow the SMILES beside them. Dopa = N[C@@H](Cc1ccc(O)c(O)c1)C(=O)O
MEASURED QUANTITY: recovery at 10 μM (%)

N[C@@H](CSC[C@H](NC(=O)[C@@H](N)Cc1ccc(O)c(O)c1)C(=O)O)C(=O)O (single isomer, unassigned; peak 2) [LD-LA2 TFA salt, Levodopa Lanthionine Peak 2 TFA Salt]    43
N[C@@H](Cc1ccc(O)c(O)c1)C(=O)N[C@@H](CC(=O)O)C(=O)O [LD-Asp TFA salt, Levodopa Aspartic Acid] (H-[Dopa]-Asp-OH)    60
N[C@@H](Cc1ccc(O)c(O)c1)C(=O)O [LD (control), L-3,4-dihydroxyphenylalanine, reference compound]    68
N=C(N)NCCC[C@H](NC(=O)[C@@H](N)Cc1ccc(O)c(O)c1)C(=O)O [LD-Arg TFA salt, Levodopa Arginine TFA Salt]    79
